Task for the reader: assign each of the following compounds its reported Activity.
method: Induction of tubulin polymerization at 1 uM by DAPI fluorescence method relative to control
Put your answer as a value accompanied by its unit after it.

[ask] Supply reported Activity belonging to this compound: `C/C=C/C(=O)O[C@H]1C(=O)[C@]2(C)[C@@H](OC(=O)c3ccccc3)C[C@H]3OC[C@@]3(OC(C)=O)[C@H]2[C@H](OC(=O)c2ccccc2)[C@]2(O)C[C@H](OC(=O)[C@H](O)[C@@H](NC(=O)c3ccccc3)c3ccccc3)C(C)=C1C2(C)C`
[reply] 66%

[ask] Supply reported Activity belonging to this compound: `CCC(=O)O[C@H]1C(=O)[C@]2(C)[C@@H](OC(=O)C3CC3)C[C@H]3OC[C@@]3(OC(C)=O)[C@H]2[C@H](OC(=O)c2ccccc2)[C@]2(O)C[C@H](OC(=O)[C@H](O)[C@@H](NC(=O)c3ccccc3)c3ccccc3)C(C)=C1C2(C)C`
[reply] 62%

Values compiled from ChEMBL document CHEMBL1156410.
